Source: ChEMBL document CHEMBL2150859

Study system: High affinity nerve growth factor receptor (Homo sapiens, UniProt P04629)
Sequence (P04629 whole entry): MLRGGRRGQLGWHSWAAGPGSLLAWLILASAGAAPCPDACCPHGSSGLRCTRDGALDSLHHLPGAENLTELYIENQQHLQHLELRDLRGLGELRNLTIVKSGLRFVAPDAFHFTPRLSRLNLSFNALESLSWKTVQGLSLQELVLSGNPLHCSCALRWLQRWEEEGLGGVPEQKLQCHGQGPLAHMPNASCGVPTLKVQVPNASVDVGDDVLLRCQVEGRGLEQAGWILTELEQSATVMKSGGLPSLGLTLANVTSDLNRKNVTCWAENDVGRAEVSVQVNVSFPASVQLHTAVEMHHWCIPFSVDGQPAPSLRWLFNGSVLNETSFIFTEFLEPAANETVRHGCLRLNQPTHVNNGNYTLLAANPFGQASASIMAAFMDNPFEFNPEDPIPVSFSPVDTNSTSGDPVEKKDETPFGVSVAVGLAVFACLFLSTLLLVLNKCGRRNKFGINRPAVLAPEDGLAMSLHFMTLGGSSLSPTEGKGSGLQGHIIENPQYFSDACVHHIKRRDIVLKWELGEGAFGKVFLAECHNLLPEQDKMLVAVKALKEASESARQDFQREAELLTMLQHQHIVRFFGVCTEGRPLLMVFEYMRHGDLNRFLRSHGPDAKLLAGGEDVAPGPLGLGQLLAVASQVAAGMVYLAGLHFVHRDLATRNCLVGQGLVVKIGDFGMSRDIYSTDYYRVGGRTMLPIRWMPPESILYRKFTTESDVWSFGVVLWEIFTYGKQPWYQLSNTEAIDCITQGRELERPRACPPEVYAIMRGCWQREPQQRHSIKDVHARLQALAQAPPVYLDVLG
Endpoint name: pIC50
On this scale, pIC50 is minus log10 of a concentration expressed in M (mol/L).

Look over these answered cases.
Nc1cc(NS(=O)(=O)c2ccc(F)cc2F)cc(-c2cnc3[nH]cc(-c4ccncc4)c3c2)c1    8.53
Cc1ccc(S(=O)(=O)Nc2cc(N)cc(-c3cnc4[nH]cc(-c5ccncc5)c4c3)c2)cc1    8.34
COc1ccc(-c2cnc3[nH]cc(-c4ccncc4)c3c2)cc1N    7.48

In: Tell us which pIC50 value is on record for Nc1cc(NS(=O)(=O)c2cccc(C(F)(F)F)c2)cc(-c2cnc3[nH]cc(-c4ccncc4)c3c2)c1
Out: 8.78

In: # return recorded pIC50 for input Nc1cc(-c2cnc3[nH]cc(-c4ccncc4)c3c2)ccc1C(=O)N1CCOCC1
Out: 7.05

In: Complete the entry with pIC50 for Nc1ccc(NS(=O)(=O)c2ccccc2)c(-c2cnc3[nH]cc(-c4ccncc4)c3c2)c1
Out: 5.50

In: Identify measured pIC50 corresponding to Nc1cc(NS(=O)(=O)c2ccccc2)cc(-c2cnc3[nH]cc(-c4ccncc4)c3c2)c1
Out: 8.03

In: Specify measured pIC50 for Nc1cc(C(=O)N2CCOCC2)cc(-c2cnc3[nH]cc(-c4ccncc4)c3c2)c1 .
Out: 7.19

In: State its pIC50: COc1cc(N)cc(-c2cnc3[nH]cc(-c4ccncc4)c3c2)c1
Out: 7.73

----------
Study system: Phosphatidylinositol 4,5-bisphosphate 3-kinase catalytic subunit alpha isoform (Homo sapiens)
Sequence (P42336 whole entry, canonical isoform): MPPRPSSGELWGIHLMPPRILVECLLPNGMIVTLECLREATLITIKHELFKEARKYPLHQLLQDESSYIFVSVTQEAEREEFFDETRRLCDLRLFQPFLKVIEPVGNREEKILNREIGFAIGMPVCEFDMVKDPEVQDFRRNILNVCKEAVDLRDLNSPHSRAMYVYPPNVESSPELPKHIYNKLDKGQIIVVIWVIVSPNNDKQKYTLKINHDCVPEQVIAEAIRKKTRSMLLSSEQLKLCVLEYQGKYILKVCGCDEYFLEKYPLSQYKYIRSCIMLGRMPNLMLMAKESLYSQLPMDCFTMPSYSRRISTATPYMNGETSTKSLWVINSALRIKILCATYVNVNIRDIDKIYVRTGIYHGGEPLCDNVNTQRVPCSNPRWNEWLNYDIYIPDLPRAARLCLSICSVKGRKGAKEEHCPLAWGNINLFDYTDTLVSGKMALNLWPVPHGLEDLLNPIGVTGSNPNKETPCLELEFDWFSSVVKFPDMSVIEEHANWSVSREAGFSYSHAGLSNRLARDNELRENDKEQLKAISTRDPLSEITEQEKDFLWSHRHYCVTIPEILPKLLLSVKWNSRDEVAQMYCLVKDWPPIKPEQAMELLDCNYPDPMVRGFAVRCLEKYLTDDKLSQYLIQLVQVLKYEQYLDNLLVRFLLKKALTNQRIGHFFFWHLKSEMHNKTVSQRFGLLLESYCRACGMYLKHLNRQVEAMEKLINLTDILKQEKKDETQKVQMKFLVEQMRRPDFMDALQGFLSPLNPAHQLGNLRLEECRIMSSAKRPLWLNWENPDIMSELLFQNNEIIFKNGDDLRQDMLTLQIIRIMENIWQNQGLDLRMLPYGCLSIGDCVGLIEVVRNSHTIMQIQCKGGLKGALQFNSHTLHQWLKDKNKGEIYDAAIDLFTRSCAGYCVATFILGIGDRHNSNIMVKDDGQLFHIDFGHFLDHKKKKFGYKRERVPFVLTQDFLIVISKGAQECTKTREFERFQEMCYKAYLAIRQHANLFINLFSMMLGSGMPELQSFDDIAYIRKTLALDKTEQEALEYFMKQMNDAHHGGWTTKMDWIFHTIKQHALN
Test summary: Binding affinity to PI3Kalpha by high throughput assay
Endpoint name: Kd (µM)
Use µM as the unit, but write only the number.

COc1ccc(-c2c[nH]c3ncc(-c4cccc(NS(=O)(=O)c5ccccc5)c4)cc23)cc1OC    2.3

In: Kindly indicate its recorded Kd. Item: Nc1cccc(-c2cnc3[nH]cc(-c4ccncc4)c3c2)c1
Out: 2.9

In: # return recorded Kd for input N#Cc1cccc(-c2cnc3[nH]cc(-c4cccc(N)c4)c3c2)c1
Out: 12

In: Indicate its recorded Kd; the compound in question is Nc1cccc(-c2cnc3[nH]cc(-c4cccnc4)c3c2)c1
Out: 4.5

In: Determine from records and report Kd for COc1ccc(-c2c[nH]c3ncc(-c4cncc(N)c4)cc23)cc1OC
Out: 0.96

In: Find the measured Kd of COc1ccc(-c2c[nH]c3ncc(-c4cncc(NS(=O)(=O)c5ccccc5)c4)cc23)cc1OC and report it.
Out: 0.048

----------
Tested on: MCF7
Test summary: cells
Applied conditions: Homo sapiens, MCF7, 48 h
Description: Cytotoxicity against human MCF7 cells after 48 hrs by MTT assay
pIC50: −log10 of the molar value.
Endpoint name: pIC50

Record excerpt, results attached:
CC(=O)Nc1cc(N)cc(-c2cnc3[nH]cc(-c4ccncc4)c3c2)c1    < 4.52
Nc1cc(C(=O)N2CCOCC2)cc(-c2cnc3[nH]cc(-c4ccncc4)c3c2)c1    < 4.52

Let us move to another entry and its pIC50.
In: Would you please give the reported pIC50 of CS(=O)(=O)Nc1cc(N)cc(-c2cnc3[nH]cc(-c4ccncc4)c3c2)c1 with MCF7?
Out: < 4.52
